List of growth values.
system: NCI-H226 lung; test: NCI-60 one-dose screen, 48 h (100 = growth as untreated, 0 = no growth, -100 = all killed); details: 10 µM unless noted
About 83,000 compounds went through this panel and 20% of them were active in at least one assay; those are over-represented in the sample as a whole. Active and inactive are the calls of the source. How the source made its calls: active means growth percent below 10; inactive means the rest.

Look over these answered cases.
compound	target_desc	growth
CCCCCCCSc1ccc(C(=O)O)cc1	NCI-H226 lung	97.2% (inactive)
O=c1[nH]nc(-c2ccc(Cl)cc2)cc1Cc1ccccc1	NCI-H226 lung	79.9% (inactive)
O=C1N(c2ccccc2)C(=S)N[C@]12[C@H](c1ccccc1)C1CCCN1[C@]21C(=O)NC2C=CC(Cl)=C[C@H]21 (some centres not stated)	NCI-H226 lung	82.5% (inactive)
CCNCCNc1cc(-c2ccc(F)cc2)c(C#N)c2nc3ccccc3n12	NCI-H226 lung	93.1% (inactive)
O=C(CCCCCCCn1cc(-c2cccnc2)nn1)Nc1ccccc1-c1ccccc1	NCI-H226 lung	55.4% (inactive)

# ---- query compound ----
For CCCCCCN(CCCCCC)CC(O)c1cccc2ccc(Cl)cc12 (configuration not stated) , write its growth.
85.6% (inactive)

* * *

test system: SNB-75 CNS; assay: NCI-60 one-dose screen, 48 h; conditions: 10 µM unless noted
This is part of a sample that, as a whole, favours compounds with a hit. Of some 83,000 tested, about 20% had one in any assay. Calls of active or inactive are those of the source. How the source made its calls: active means growth percent below 10; inactive means the rest.
Permitted responses: class 1 for active, class 0 for inactive

compound	target_desc	class
CS(=O)(=O)c1ccc(-c2[nH]c3ccc(F)cc3c2/C=N/NC(N)=S)cc1	SNB-75 CNS	class 0
O=C1C2=C(CCN(Cc3ccccc3)C2)N2CCN=C2N1Cc1ccc(F)cc1F	SNB-75 CNS	class 0
COc1ccc(-c2nc3ncccn3c2/C=C/C(=O)c2cc(OC)c(OC)c(OC)c2)cc1	SNB-75 CNS	class 1

Consider now this further compound.
Tell me the assay call for O=C(NCCOCCOCCNc1cccc2c1C(=O)N(C1CCCNC1=O)C2=O)c1cc2c(o1)C(=O)c1ccccc1C2=O (centres undefined) please.
class 1

* * *

system: DU-145 prostate; assay: NCI-60 one-dose screen, 48 h; settings: 10 µM unless noted
About 83,000 compounds went through this panel and 20% of them were active in at least one assay; those are over-represented in the sample as a whole. The source made the active and inactive calls. The calls were made as follows: active = growth percent below 10; inactive = the rest.
Can you answer with just one of these options? active, inactive

Recorded results for 5 molecules are shown here.
molecule	target_desc	class
CC(C)OCCCNCC(=O)Nc1ccc(S(=O)(=O)c2ccc(NC(=O)CNCCCOC(C)C)cc2)cc1	DU-145 prostate	inactive
CCCCC1COc2cccc3c(SCC(=O)N(C)c4cccc(Cl)c4)cc[n+]1c23 (configuration not stated)	DU-145 prostate	inactive
C=C1C(=O)O[C@H]2[C@H]1CC/C(COC(=O)/C=C\C(=O)NCc1ccc(Cn3c(=O)sn(-c4ccc(Cl)cc4)c3=O)cc1)=C\CC[C@@]1(C)O[C@@H]21	DU-145 prostate	active
COc1ccc(-c2nc3sccn3c2/C=C/C(=O)c2c[nH]c3ccccc23)cc1	DU-145 prostate	inactive
N#C/C(=C\c1ccc(Br)cc1)n1nnc2ccccc21	DU-145 prostate	inactive

In this assay, the call recorded for COc1ccccc1NC(=O)Nc1ccc(-c2nc3ccccc3o2)cc1 was what?
inactive

Entry COc1cc(-c2ncn(/C=C\c3nnco3)n2)cc(C(F)(F)F)c1 : call = ?
inactive
